Reported pKi values for a set of compounds
targetDesc: CDK2 (UniProt P24941)
pKi: −log10 of the molar value.

Below: 5 compounds and their reported pKi.
input: What value of pKi has been recorded for this entry: Cc1cnc(NCC2CC2)nc1-c1c[nH]c(C(=O)N[C@H](CO)c2ccccc2)c1
output: 4.70 to 6.00

input: What value of pKi has been recorded for this entry: COc1ccccc1Nc1ncc(C)c(-c2c[nH]c(C(=O)N[C@H](CO)c3ccccc3)c2)n1
output: 4.70 to 6.00

input: What value of pKi has been recorded for this entry: Cc1cnc(N[C@@H](CO)c2ccccc2)nc1-c1c[nH]c(C(=O)N[C@H](CO)c2ccccc2)c1
output: 6.00 to 7.00

input: What value of pKi has been recorded for this entry: Cc1cnc(N[C@H]2CC[C@H](O)CC2)nc1-c1c[nH]c(C(=O)N[C@H](CO)c2ccccc2)c1
output: > 7.00

input: What value of pKi has been recorded for this entry: Cc1cnc(Nc2cccc(F)c2)nc1-c1c[nH]c(C(=O)NC(CO)c2cccc(C(F)(F)F)c2)c1 (stereo unspecified)
output: 6.00 to 7.00

Continue with the compound presented below.
input: What value of pKi has been recorded for this entry: Cc1cnc(Nc2ccccc2)nc1-c1c[nH]c(C(=O)NC(CO)c2cccc(C(F)(F)F)c2)c1 (stereo unspecified)
output: 6.00 to 7.00
